FYI, the data here is from ChEMBL document CHEMBL2406917.

test: Total antioxidant capacity of the compound at 200 uM relative to control; assay type: physicochemical
Measure: TAC (U)
Answer with a number only, understood to be in U.

# input compound: CC(C)C(c1c(O)cc(/C=C/c2ccc(O)c(O)c2)oc1=O)c1c(O)cc(/C=C/c2ccc(O)c(O)c2)oc1=O ; wanted: its TAC
5.39

# input compound: O=c1cc(O)cc(/C=C/c2ccc(O)c(O)c2)o1 ; wanted: its TAC
10.25

# input compound: O=C1O[C@H]([C@@H](O)CO)C(O)=C1O ; wanted: its TAC
21.68

# input compound: O=C1CC(c2c(O)cc(/C=C/c3ccc(O)c(O)c3)oc2=O)CN1 (stereo not drawn) ; wanted: its TAC
6.91

# input compound: COC(=O)CCC(c1c(O)cc(/C=C/c2ccc(O)c(O)c2)oc1=O)c1c(O)cc(/C=C/c2ccc(O)c(O)c2)oc1=O ; wanted: its TAC
11.06

# input compound: CC(C)CC(c1c(O)cc(/C=C/c2ccc(O)c(O)c2)oc1=O)c1c(O)cc(/C=C/c2ccc(O)c(O)c2)oc1=O ; wanted: its TAC
10.81

# input compound: O=C(O)CCC(c1c(O)cc(/C=C/c2ccc(O)c(O)c2)oc1=O)c1c(O)cc(/C=C/c2ccc(O)c(O)c2)oc1=O ; wanted: its TAC
10.74

# input compound: CC(c1c(O)cc(/C=C/c2ccc(O)c(O)c2)oc1=O)c1c(O)cc(/C=C/c2ccc(O)c(O)c2)oc1=O ; wanted: its TAC
5.16
